- System: IGROV-1
- ASSAY_PROTOCOL: NCI tumour cell line growth inhibition, 48 h
Activity calls are given as the source filed them. Cut-off read from the data, not from the text of the source: active = GI50 up to about 1.1 µM and inactive = higher.
VALUE_KIND: GI50

Look over these answered cases.
CCOC(=O)/C(=C/c1ccc(OC)cc1)N(CC)CC = > 100 µM (inactive)
O=C(NNC(=S)Nc1ccccc1)c1ccccc1Nc1ccccc1C(=O)NNC(=S)Nc1ccccc1 = 8.24 µM (inactive)
Cc1nc2n(c1/C=C1/C(=O)Nc3ccccc31)CCS2 = 91 µM (inactive)
Cc1nc(Nc2ccccc2Cl)sc1C(=O)CC(=O)C(N)=O = 39.3 µM (inactive)
O=C1CSC(c2ccccc2)N1c1ccc(-n2c(-c3ccccc3)nc3ccccc3c2=O)cc1 (stereo not given) = 34.8 µM (inactive)

In plain terms, O=C(CNc1ccc(Cl)cc1Cl)Nn1c(-c2ccccc2)nc2ccccc2c1=O has a documented GI50 of 15.2 µM (inactive)

In plain terms, CN1CCc2c(sc3ncn(Nc4ccc(F)cc4)c(=N)c23)C1 has a documented GI50 of > 100 µM (inactive)

In plain terms, CC(C)(C)c1ccc(O)c(Br)c1 has a documented GI50 of 19.1 µM (inactive)

In plain terms, O=c1cc(CC(O)(C(F)(F)Cl)C(F)(F)Cl)[nH]n1-c1ccccc1 has a documented GI50 of > 100 µM (inactive)

In plain terms, O=C(O)/C(=C\c1ccc(O)cc1)c1cccc2ccccc12 has a documented GI50 of > 100 µM (inactive)

----------
- Test system: HT-29
- ASSAY_PROTOCOL: NCI tumour cell line growth inhibition, 48 h
Active and inactive are the calls of the source. No stated cut-off is given here; in the data, active = GI50 up to about 1.1 µM and inactive = higher.
# GI50 listing for each entry below

Look over these answered cases.
O=C(O)CCCCCCC[C@@H]1S[C@H]1CCCCCCO = > 100 µM (inactive)
Cc1ccc2c(c1C)C(=O)C1(Cc3cc4c(cc3C1=O)CCC4)C2 (centres undefined) = > 100 µM (inactive)
Cc1ccc(S(=O)(=O)c2ccccn2)cc1 = > 100 µM (inactive)
CC(C)=CCC[C@](C)(O)[C@H]1CC[C@]2(C)[C@@H]1[C@H](O)C[C@@H]1[C@@]3(C)CC[C@H](O[C@@H]4O[C@H](CO)[C@@H](O)[C@H](O)[C@H]4O)C(C)(C)[C@@H]3CC[C@]12C [GINSENOSIDE RH2] = 15.5 µM (inactive)
COC(=O)/C(=C1\OC(=O)C(c2ccc(Cl)cc2)=C1O)c1ccc(Cl)cc1 = 30 µM (inactive)
O=c1cc(CC(O)(C(F)(F)Cl)C(F)(F)Cl)[nH]n1-c1ccccc1 = > 100 µM (inactive)
Cc1nc(Nc2ccccc2Cl)sc1C(=O)CC(=O)C(N)=O = 18.8 µM (inactive)
Oc1ccc(Cc2cc(Cl)cc(Cl)c2O)cc1Cl = 20.1 µM (inactive)

Shifting focus to the compound that follows.
Value sought: GI50, system HT-29, item O=C(O/N=C1\CCCC\C1=C/c1ccccc1)c1ccc([N+](=O)[O-])cc1 . Result: > 100 µM (inactive)

----------
- Tested on: DMS-273
- ASSAY_PROTOCOL: NCI tumour cell line growth inhibition, 48 h
Activity calls are given as the source filed them. No stated cut-off is given here; in the data, active = GI50 up to about 1.1 µM and inactive = higher.
# GI50 listing for each entry below

Look over these answered cases.
N#Cc1cnsc1 = > 100 µM (inactive)
COC(=O)N/N=C(\C)C(CN(C)C)C(c1ccccc1)c1c(O)c2ccccc2oc1=O (centres undefined) = > 100 µM (inactive)
COc1ccc(-c2cc(-c3ccco3)c(C#N)c(=O)[nH]2)cc1 = 31 µM (inactive)
Cc1ccc(S(=O)(=O)n2cc(/C=C/C#N)c(/C=C/C#N)c2)cc1 = 49.5 µM (inactive)
O=C1C=CC(=O)c2c1ccc1c3ccccc3n(-c3ccccc3)c21 = 15.2 µM (inactive)
O=C(O)C(CS)NCc1c2ccccc2[n+]([O-])c2ccccc12 (centres undefined) = 31.6 µM (inactive)
COc1cc2c(cc1OC)-c1c3cc(O)ccc3nn[n+]1CC2 = > 100 µM (inactive)
N#CNC(=N)NC(=O)/C=C/C=C/c1ccc(Cl)cc1 = > 100 µM (inactive)

Shifting focus to the compound that follows.
In plain terms, CCc1cc(Cc2cc(CC)c(NC(=O)C3=CC(=O)CC(c4ccc(OC)cc4)O3)c(CC)c2Cl)c(Cl)c(CC)c1NC(=O)C1=CC(=O)CC(c2ccc(OC)cc2)O1 (centres undefined) has a documented GI50 of 21.7 µM (inactive)

----------
- Test system: SR
- ASSAY_PROTOCOL: NCI tumour cell line growth inhibition, 48 h
The source made the active and inactive calls. No stated cut-off is given here; in the data, active = GI50 up to about 1.1 µM and inactive = higher.
Please state which outcome applies, choosing from true for active, false for inactive

CC(C)=CCN1c2ccccc2NC(=O)CC1C (stereo unspecified) = false
CCC1(C)NC(c2cnccn2)=NN1c1ccc(Cl)cc1 (stereo unspecified) = false

## Task Outcome? CC(=O)Oc1ccc(/C=C/C(=O)O[C@@H](C)[C@H](C)OC(=O)/C=C/c2ccc(OC(C)=O)c(OC(C)=O)c2)cc1OC(C)=O
## Result false

## Task Outcome? OCCCNCC(O)c1ccc(OCc2ccccc2)c(OCc2ccccc2)c1 (stereo unspecified)
## Result false

## Task Outcome? CC(C)NC(NC(C)C)=C(S(=O)(=O)C(F)(F)C(F)(F)C(F)(F)C(F)(F)F)S(=O)(=O)C(F)(F)C(F)(F)C(F)(F)C(F)(F)F
## Result false

## Task Outcome? COc1ccc2oc3c(ccc[n+]3C)c(=O)c2c1
## Result false

## Task Outcome? O=C(O)/C(=C\c1ccc(O)cc1)c1cccc2ccccc12
## Result false

## Task Outcome? N#Cc1nc(C2CC2)oc1N
## Result false

## Task Outcome? Cc1ccc(/N=N/c2c(O)ccc3cc(S(=O)(=O)O)ccc23)c(C)c1
## Result false

----------
- System: KM12
- ASSAY_PROTOCOL: NCI tumour cell line growth inhibition, 48 h
Calls of active or inactive are those of the source. No stated cut-off is given here; in the data, active = GI50 up to about 1.1 µM and inactive = higher.
VALUE_KIND: GI50

COc1ccc2oc3c(ccc[n+]3C)c(=O)c2c1 = > 100 µM (inactive)
Cn1c(=O)nc2n(-c3ccc(O)cc3)c3ccccc3nc-2c1=O = 55.3 µM (inactive)
Cc1cc(N(CC(C)Br)CC(C)Br)ccc1/N=N/c1ccccc1C(=O)O (stereo unspecified) = 13.4 µM (inactive)
c1ccc2c(c1)cc(C1NCCc3nc[nH]c31)c1ccccc12 (stereo unspecified) = 47.6 µM (inactive)
N#C/C1=C(\N)CCSSSC1 = 51.1 µM (inactive)

Shifting focus to the compound that follows.
In plain terms, CC(=O)OCC1OC(n2cnc3c(I)nc(I)nc32)C(OC(C)=O)C1OC(C)=O (stereo unspecified) has a documented GI50 of 4.48 µM (inactive)

----------
- Test system: SNB-19
- ASSAY_PROTOCOL: NCI tumour cell line growth inhibition, 48 h
The source made the active and inactive calls. No stated cut-off is given here; in the data, active = GI50 up to about 1.1 µM and inactive = higher.
# GI50 listing for each entry below

Look over these answered cases.
O=C(Nc1ccc(I)cc1C(=O)NCCO)c1cccs1 = > 100 µM (inactive)
Cc1nc2ccc(Cl)cc2c2c1CCN2c1ccc(F)cc1 = 33.1 µM (inactive)
COc1ccc2c(=O)c(O)c(-c3ccc(OC)c(OC)c3)oc2c1 = 15.8 µM (inactive)
N#CC1Sc2ccccc2-n2cccc21 (stereo not given) = > 100 µM (inactive)

Shifting focus to the molecule that follows.
In plain terms, C=CCN1C(=O)C[C@H](Cc2ccccc2)NC(=O)C[C@H](Cc2ccccc2)N(CC=C)C(=O)C[C@H](Cc2ccccc2)NC(=O)C[C@@H]1Cc1ccccc1 has a documented GI50 of > 100 µM (inactive)

----------
As an illustration, consider measured GI50 for molecules on HCT-15.

Look over these answered cases.
COC(=O)CCC1(C)C2CCC1(C)/C(=N/O)C2 (stereo unspecified) = > 100 µM
CC(C)(CN1CCCCC1)C(=O)/C=C/c1ccccc1 = 13.1 µM
Cc1cc(Cc2cc(C)c(N)cc2N)c(N)cc1N = > 100 µM
COc1cc2c(c(OC)c1OC)-c1ccc(SC)c(=O)cc1[C@@H](NC(=O)c1ccc(OC(C)=O)cc1)CC2 = 0.0229 µM

In plain terms, COCCN(CCNC(=O)c1cccc2c(N)c3cccc(C)c3nc12)CCOC has a documented GI50 of 1.82 µM

In plain terms, COc1cc(/C=C/C(=O)OC[C@H](Br)[C@H](OC(C)=O)c2ccc3c(c2)OCO3)cc(OC)c1OC has a documented GI50 of > 100 µM

In plain terms, Cn1c(N)c(-c2c3ccccc3nc3ccccc23)c(=O)n(C)c1=O has a documented GI50 of > 100 µM

----------
- System: MDA-MB-435
- ASSAY_PROTOCOL: NCI tumour cell line growth inhibition, 48 h
The source made the active and inactive calls. No stated cut-off is given here; in the data, active = GI50 up to about 1.1 µM and inactive = higher.
# GI50 listing for each entry below

Look over these answered cases.
CNC(=S)/C(C#N)=C(\N)N1CCCC1 = > 100 µM (inactive)
O=S(=O)(O)c1cccc2ccc(O)c(/N=N\c3ccc(S(=O)(=O)c4ccc(/N=N/c5c(O)ccc6cccc(S(=O)(=O)O)c56)cc4)cc3)c12 = > 100 µM (inactive)
CC(C)=CC[C@]12CCN(C)[C@H]1N(S(=O)(=O)c1ccccc1)c1ccccc12 = > 44.7 µM (inactive)

In plain terms, Cc1nc(Nc2ccccc2Cl)sc1C(=O)CC(=O)C(N)=O has a documented GI50 of 16 µM (inactive)

In plain terms, COc1nc(Cl)nc(N[C@H](C)c2c3ccccc3cc3ccccc23)n1 has a documented GI50 of 4.31 µM (inactive)

In plain terms, CCCCCCCCCCNC1CC(OC2CC(O)(C(O)CO)Cc3c(O)c4c(c(O)c32)C(=O)c2c(OC)cccc2C4=O)OC(C)C1O (stereo not given) has a documented GI50 of 1.77 µM (inactive)

In plain terms, O=C1CN2Cc3cc(N4CCOCC4)ccc3N=C2N1 has a documented GI50 of 22.9 µM (inactive)

In plain terms, COc1ccc2c(c1)CCN1CCCc3ccccc3C21 (stereo not given) has a documented GI50 of 20.5 µM (inactive)

In plain terms, CCN(C(=O)N[C@@H](Cc1ccccc1)C(=O)N[C@@H](CC(C)C)C(=O)OC)c1ccccc1 has a documented GI50 of 51.6 µM (inactive)

In plain terms, O=C(Nc1ccc(I)cc1C(=O)NCCO)c1cccs1 has a documented GI50 of > 100 µM (inactive)

Provenance of the data: ChEMBL document CHEMBL1201862
